// data source = patent US9062043B2

Experiment: Pharmacokinetics in ICR mice after IV and PO dose
Format: in vivo
Conditions: mouse, plasma, PO 25 mg/kg
parameter: AUC(0-inf) (ng·h/mL)
Your answer is read as ng·h/mL, so omit the unit and give the number.

Quick one: AUC(0-inf) of `O=C(O)c1ccc2c(c1)nc(Nc1cccc(Cl)c1)c1ccncc12` ? 3150

* * *

Test system: HCT-116 human colorectal carcinoma cells
Assay: Cell proliferation assay, Alamar Blue, HCT-116;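 note: cells exposed to compound for about 4 days, then Alamar Blue added and fluorescence read after about 4 h, medium-only wells as control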
Assay type: cell-based
Details: HCT-116, Table 16, second HCT-116 column
parameter: IC50

Below, each entry is followed by its recorded IC50 result.
- structure_string: "O=C(O)c1ccc2c(c1)nc(Nc1cc(F)ccc1F)c1ccsc12"
  IC50: "> 10 µM"
- structure_string: "c1ccc(Nc2nc3cc(-c4nnc[nH]4)ccc3c3sccc23)cc1"
  IC50: "7.6 µM"
- structure_string: "CNS(=O)(=O)c1cccc(Nc2nc3cc(C(=O)O)ccc3c3sccc23)c1"
  IC50: "> 10 µM"

Quick one: IC50 of `O=C(O)c1ccc2c(c1)nc(Nc1cccc(C(=O)N3CCOCC3)c1)c1ccsc12` ? > 10 µM

Same thing, different compound: `O=C(NC1CC1)c1cccc(Nc2nc3cc(-c4nnn[nH]4)ccc3c3sccc23)c1` > 10 µM

* * *

Molecular target: UniProt:P09874
Assay: PARP assay (chemiluminescent PARP assay kit, Trevigen)
Type: biochemical
Conditions: 20 uM; Table 12; read-out: PARP % inhib @ 20 uM
parameter: inhibition at 20 µM (%)
Your answer is read as %, so omit the unit and give the number.

- structure_string: "COC(=O)CNC(=O)c1ccc2c(c1)[nH]c(=O)c1ccsc12"
  inhibition at 20 µM / %: 93

Quick one: inhibition at 20 µM of `O=C(NCCc1ccccn1)c1ccc2c(c1)[nH]c(=O)c1ccsc12` ? 83

Same thing, different compound: `O=C(c1ccc2c(c1)[nH]c(=O)c1ccsc12)N1CCOCC1` 95

Same thing, different compound: `O=C(O)c1ccc2c(c1)[nH]c(=O)c1ccsc12` 90

* * *

# pIC50 measurements, system: PARP (Homo sapiens (Human), UniProt P09874)
# Sequence (P09874 whole entry): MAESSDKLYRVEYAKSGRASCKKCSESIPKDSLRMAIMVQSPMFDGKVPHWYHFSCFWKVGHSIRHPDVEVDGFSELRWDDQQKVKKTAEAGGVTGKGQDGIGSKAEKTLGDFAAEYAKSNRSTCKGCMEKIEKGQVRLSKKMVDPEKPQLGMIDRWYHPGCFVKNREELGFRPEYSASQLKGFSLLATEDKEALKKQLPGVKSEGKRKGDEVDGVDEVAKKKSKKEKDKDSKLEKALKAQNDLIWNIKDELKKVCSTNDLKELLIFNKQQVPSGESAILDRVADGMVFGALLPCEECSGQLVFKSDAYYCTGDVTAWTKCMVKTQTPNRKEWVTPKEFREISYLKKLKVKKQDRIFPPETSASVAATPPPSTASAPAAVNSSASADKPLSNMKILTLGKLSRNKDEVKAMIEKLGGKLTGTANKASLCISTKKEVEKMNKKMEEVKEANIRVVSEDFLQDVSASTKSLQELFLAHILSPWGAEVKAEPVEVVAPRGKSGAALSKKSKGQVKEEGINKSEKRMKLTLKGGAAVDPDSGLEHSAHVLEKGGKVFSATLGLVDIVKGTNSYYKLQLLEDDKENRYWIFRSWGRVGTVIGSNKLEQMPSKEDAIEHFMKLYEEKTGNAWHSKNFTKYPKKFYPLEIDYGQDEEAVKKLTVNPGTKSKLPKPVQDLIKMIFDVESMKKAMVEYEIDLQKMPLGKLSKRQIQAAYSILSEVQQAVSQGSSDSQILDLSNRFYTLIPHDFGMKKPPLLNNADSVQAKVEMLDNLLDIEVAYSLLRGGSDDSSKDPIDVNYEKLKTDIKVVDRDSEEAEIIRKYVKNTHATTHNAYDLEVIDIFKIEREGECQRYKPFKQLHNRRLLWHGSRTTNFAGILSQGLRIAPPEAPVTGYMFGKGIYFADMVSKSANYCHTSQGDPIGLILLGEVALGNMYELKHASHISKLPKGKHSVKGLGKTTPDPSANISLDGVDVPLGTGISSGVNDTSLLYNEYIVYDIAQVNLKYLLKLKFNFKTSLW
Give only the number. pIC50 is defined as minus log10 of concentration in molar units.

- structure_string: "O=C(NCc1ccccn1)c1ccc2c(c1)[nH]c(=O)c1ccsc12"
  result: 6.00
- structure_string: "CCCNC(=O)c1ccc2c(c1)[nH]c(=O)c1ccsc12"
  result: 6.00
- structure_string: "CC(=O)N1CCN(C(=O)c2ccc3c(c2)[nH]c(=O)c2ccsc23)CC1"
  result: 6.52
- structure_string: "COCCNC(=O)c1ccc2c(c1)[nH]c(=O)c1ccsc12"
  result: 6.40
- structure_string: "N#Cc1ccc2c(c1)[nH]c(=O)c1ccsc12"
  result: 6.30
- structure_string: "O=C(NCCc1ccccn1)c1ccc2c(c1)[nH]c(=O)c1ccsc12"
  result: 6.00
- structure_string: "O=C(NCCc1cnc[nH]1)c1ccc2c(c1)[nH]c(=O)c1ccsc12"
  result: 6.70
- structure_string: "O=C(NCc1ccncc1)c1ccc2c(c1)[nH]c(=O)c1ccsc12"
  result: 6.00

Request - read-out pIC50 | tested on PARP (Homo sapiens (Human), UniProt P09874) | molecule `NC(=O)c1ccc2c(c1)[nH]c(=O)c1ccsc12` 7.22

Same thing, different molecule: `O=C(c1ccc2c(c1)[nH]c(=O)c1ccsc12)N1CCNCC1` 7.52

Same thing, different molecule: `NC1CCN(C(=O)c2ccc3c(c2)[nH]c(=O)c2ccsc23)CC1` 7.70

Same thing, different molecule: `CC(C)(C)OC(=O)N1CCN(C(=O)c2ccc3c(c2)[nH]c(=O)c2ccsc23)CC1` 6.52
